System: MOLT-4
Experiment: CellTiter-Glo luminescent cell viability assay (ATP quantification), MOLT-4
Format: cell-based
Conditions: acute lymfoblastic leukemia cells, 72 h treatment, viable cells by ATP luminescence
MEASURED_PROPERTY: IC50

Solved entries (count: 3):
- COMPOUND: "Cc1c(C)c2c(c3c1CC[n+]1ccc(/C=C/c4ccc(N(C)C)cc4)cc1-3)-c1c3ccccc3cc[n+]1CC2 [(P)-1]"
  TARGET_DESC: "MOLT-4"
  IC50: "11 to 50 µM"
- COMPOUND: "COc1ccc2cc(/C=C/c3cc[n+]4c(c3)-c3c(c(C)c(C)c5c3-c3c6ccccc6cc[n+]3CC5)CC4)ccc2c1 [(M)-7]"
  TARGET_DESC: "MOLT-4"
  IC50: "< 10 µM"
- COMPOUND: "COc1ccc2cc(/C=C/c3cc[n+]4c(c3)-c3c(c(C)c(C)c5c3-c3c6ccccc6cc[n+]3CC5)CC4)ccc2c1 [(P)-7]"
  TARGET_DESC: "MOLT-4"
  IC50: "11 to 50 µM"

Entry Cc1c(C)c2c(c3c1CC[n+]1ccc(/C=C/c4ccc(N(C)C)cc4)cc1-3)-c1c3ccccc3cc[n+]1CC2 [(M)-1] ; assay system MOLT-4; IC50 recorded at < 10 µM

---

System: LoVo
Experiment: CellTiter-Glo luminescent cell viability assay (ATP quantification), LoVo
Assay type: cell-based
Settings: colorectal carcinoma cells, 72 h treatment, viable cells by ATP luminescence; class symbols
pIC50: −log10 of the molar value.
MEASURED_PROPERTY: pIC50

- MOLECULE: "COc1ccc2cc(/C=C/c3cc[n+]4c(c3)-c3c(c(C)c(C)c5c3-c3c6ccccc6cc[n+]3CC5)CC4)ccc2c1 [(M)-7]"
  TARGET_DESC: "LoVo"
  pIC50: "4.30 to 4.96"

// field: pIC50; key: Cc1c(C)c2c(c3c1CC[n+]1ccc(/C=C/c4ccc(N(C)C)cc4)cc1-3)-c1c3ccccc3cc[n+]1CC2 [(M)-1] ; value = 4.30 to 4.96

---

System: CCRF-CEM
Assay: CellTiter-Glo luminescent cell viability assay (ATP quantification), CCRF-CEM
Assay type: cell-based
Settings: acute lymphoblastic leukemia cells, 72 h treatment, viable cells by ATP luminescence
MEASURED_PROPERTY: IC50

Provide the reported IC50 of each entry below, same order.
1. Cc1c(C)c2c(c3c1CC[n+]1ccc(/C=C/c4ccc(N(C)C)cc4)cc1-3)-c1c3ccccc3cc[n+]1CC2 [(M)-1]
2. Cc1c(C)c2c(c3c1CC[n+]1ccc(/C=C/c4ccc(N(C)C)cc4)cc1-3)-c1c3ccccc3cc[n+]1CC2 [(P)-1]
3. COc1ccc2cc(/C=C/c3cc[n+]4c(c3)-c3c(c(C)c(C)c5c3-c3c6ccccc6cc[n+]3CC5)CC4)ccc2c1 [(P)-7]
4. COc1ccc2cc(/C=C/c3cc[n+]4c(c3)-c3c(c(C)c(C)c5c3-c3c6ccccc6cc[n+]3CC5)CC4)ccc2c1 [(M)-7]

Result:
["< 10 µM", "11 to 50 µM", "11 to 50 µM", "< 10 µM"]

---

Tested on: HUVEC
Experiment: CellTiter-Glo luminescent cell viability assay (ATP quantification), HUVEC normal cells
Format: cell-based, human
Conditions: HUVEC; normal human endothelial cells from umbilical vein, 72 h treatment, viable cells by ATP luminescence; class symbols
Text: Influence of the test compounds on viability (proliferation) of cell lines used was investigated in concentration range 0-100 μmol·l^−1. […] In order to test the sensitivity of the cell lines towards the studied helquats, cytotoxity test for cell viability assessment based on ATP quantification in cell lysates was used (CellTiter-Glo® Luminescent Cell Viability Assay, Promega, cat. no. G7571). In this test, ATP in cell lysates is detected using luciferase reaction. […]
MEASURED_PROPERTY: IC50

- MOLECULE: "C(=C\\c1cc[n+]2c(c1)-c1c(ccc3c1-c1c4ccccc4cc[n+]1CC3)CC2)/c1cc2c3c(c1)CCCN3CCC2 (racemic) [(rac)-20]"
  RECORDED_MEASUREMENT: "51 to 150 µM"

Provide the reported IC50 of each entry below, same order.
1. Cc1c(C)c2c(c3c1CC[n+]1ccc4ccccc4c1-3)-c1cccc(/C=C/c3cc4c5c(c3)CCCN5CCC4)[n+]1CC2 (racemic) [(rac)-12]
2. CN(C)c1ccc(/C=C/c2cccc3[n+]2CCCc2ccc4c(c2-3)-c2cccc(/C=C/c3ccc(N(C)C)cc3)[n+]2CCC4)cc1 (racemic) [(rac)-41]

Result:
51 to 150 µM
51 to 150 µM

---

Tested on: HL-60
Experiment: CellTiter-Glo luminescent cell viability assay (ATP quantification), HL-60
Type: cell-based
Settings: Homo sapiens, HL-60; acute promyelocytic leukemia cells, 72 h treatment, viable cells by ATP luminescence
pIC50: −log10 of the molar value.
MEASURED_PROPERTY: pIC50

- COMPOUND: "C(=C\\c1cc[n+]2c(c1)-c1c(ccc3c1-c1c4ccccc4cc[n+]1CCC3)CCC2)/c1cc2c3c(c1)CCCN3CCC2 (racemic) [(rac)-25]"
  RECORDED_MEASUREMENT: "4.30 to 4.96"
- COMPOUND: "COc1ccc(/C=C/c2cc[n+]3c(c2)-c2c(c(C)c(C)c4c2-c2c5ccccc5cc[n+]2CC4)CC3)cc1 [(M)-6]"
  RECORDED_MEASUREMENT: "4.30 to 4.96"

Next up:
// field: pIC50; key: COc1ccc2cc(/C=C/c3cc[n+]4c(c3)-c3c(c(C)c(C)c5c3-c3c6ccccc6cc[n+]3CC5)CC4)ccc2c1 (racemic) [(rac)-7] ; value = 4.30 to 4.96

---

Please respond with reported pIC50 for every item in the list.
Tested on: HL-60
Assay: CellTiter-Glo luminescent cell viability assay (ATP quantification), HL-60
Type: cell-based
Settings: acute promyelocytic leukemia cells, 72 h treatment, viable cells by ATP luminescence
Source text: Influence of the test compounds on viability (proliferation) of cell lines used was investigated in concentration range 0-100 μmol·l^−1. Suspension cell line HL-60 is a permanent in vitro culture of acute promyelocytic leukemia. […] In order to test the sensitivity of the cell lines towards the studied helquats, cytotoxity test for cell viability assessment based on ATP quantification in cell lysates was used (CellTiter-Glo® Luminescent Cell Viability Assay, Promega, cat. no. G7571). […]
pIC50: −log10 of the molar value.

Solved entries (count: 2):
- COMPOUND: "Cc1c(C)c2c(c3c1CC[n+]1ccc(/C=C/c4ccc(N(C)C)cc4)cc1-3)-c1c3ccccc3cc[n+]1CC2 [(M)-1]"
  MEASURED_PROPERTY: "pIC50"
  RECORDED_MEASUREMENT: "> 5.00"
- COMPOUND: "COc1ccc2cc(/C=C/c3cc[n+]4c(c3)-c3c(c(C)c(C)c5c3-c3c6ccccc6cc[n+]3CC5)CC4)ccc2c1 [(P)-7]"
  MEASURED_PROPERTY: "pIC50"
  RECORDED_MEASUREMENT: "4.30 to 4.96"

Next up:
// field: pIC50; key: COc1ccc2cc(/C=C/c3cc[n+]4c(c3)-c3c(c(C)c(C)c5c3-c3c6ccccc6cc[n+]3CC5)CC4)ccc2c1 [(M)-7] ; value = > 5.00

Provenance of the data: patent US9340543B2
